# SYSTEM NAME: ASGPR (Homo sapiens, UniProt P07306)
# Sequence (P07306 whole entry): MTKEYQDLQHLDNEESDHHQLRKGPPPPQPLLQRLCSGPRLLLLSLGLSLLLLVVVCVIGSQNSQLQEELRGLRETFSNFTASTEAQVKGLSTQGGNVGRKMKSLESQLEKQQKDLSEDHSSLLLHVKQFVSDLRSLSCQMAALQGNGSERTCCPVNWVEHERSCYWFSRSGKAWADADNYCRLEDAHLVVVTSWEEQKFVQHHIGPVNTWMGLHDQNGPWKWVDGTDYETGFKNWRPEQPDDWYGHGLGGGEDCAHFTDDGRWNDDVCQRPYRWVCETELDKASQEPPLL
pKd: −log10 of the molar value.
VALUE TYPE: pKd

Data request: Checklist item: pKd tested on ASGPR (Homo sapiens, UniProt P07306), entry CC(=O)N[C@H]1C(O)O[C@H](CO)[C@H](O)[C@@H]1O (stereo partly shown) , value?
Data returned: ~7.51
